This collection of values is drawn from patent US20220064329A1.

- studySystem: T1, recombinant human activated Factor VII (FVIIa) (human, UniProt P08709 61-212; P08709 213-466, ten glutamate residues of the Gla domain may be gamma-carboxylated)
- T1 construct: chains tethered by a disulfide bond; also called Factor VIIa; rFVIIa
- T1 sequence 1: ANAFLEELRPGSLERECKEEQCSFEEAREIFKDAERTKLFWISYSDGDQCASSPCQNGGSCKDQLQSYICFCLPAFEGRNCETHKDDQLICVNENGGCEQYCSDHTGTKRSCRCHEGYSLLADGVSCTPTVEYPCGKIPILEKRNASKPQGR
- T1 sequence 2: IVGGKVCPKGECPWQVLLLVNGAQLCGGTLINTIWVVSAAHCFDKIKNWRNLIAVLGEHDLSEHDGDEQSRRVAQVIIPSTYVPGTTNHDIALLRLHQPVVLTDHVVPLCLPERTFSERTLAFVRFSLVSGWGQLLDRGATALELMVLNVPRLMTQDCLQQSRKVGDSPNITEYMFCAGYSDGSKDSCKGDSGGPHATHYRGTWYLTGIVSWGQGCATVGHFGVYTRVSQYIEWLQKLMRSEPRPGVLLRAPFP
- testDetails: BLI (Fortebio)
Kindly state pKd for each of the entries shown.
Worth noting: pKd values are minus log10 of concentrations stated in mol/L.

Input line: Please supply the value of reported pKd for the item VH SEQ ID NO 562 / VL SEQ ID NO 334 (antibody, IgG4, V domains shown, humanized 11F2; IgG4 S228P/kappa) VH: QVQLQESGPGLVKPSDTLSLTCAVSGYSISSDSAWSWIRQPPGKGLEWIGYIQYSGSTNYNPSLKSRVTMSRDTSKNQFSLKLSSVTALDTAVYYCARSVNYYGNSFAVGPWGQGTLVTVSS VL: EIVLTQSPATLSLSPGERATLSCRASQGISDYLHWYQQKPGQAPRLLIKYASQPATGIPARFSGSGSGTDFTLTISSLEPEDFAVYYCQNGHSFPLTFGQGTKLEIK
Output line: 8.92

Input line: Please supply the value of reported pKd for the item VH SEQ ID NO 538 / VL SEQ ID NO 318 (antibody, IgG4, V domains shown, humanized 11F2; IgG4 S228P/kappa) VH: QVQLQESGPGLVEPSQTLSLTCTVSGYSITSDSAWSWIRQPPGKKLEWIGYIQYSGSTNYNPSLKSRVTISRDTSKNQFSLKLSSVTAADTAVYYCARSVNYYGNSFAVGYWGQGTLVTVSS VL: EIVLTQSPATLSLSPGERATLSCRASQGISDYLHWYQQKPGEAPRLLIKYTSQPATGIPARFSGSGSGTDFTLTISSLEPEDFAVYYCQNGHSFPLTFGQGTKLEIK
Output line: 9.19

Input line: Please supply the value of reported pKd for the item VH SEQ ID NO 514 / VL SEQ ID NO 478 (antibody, IgG4, V domains shown, humanized 11F2; IgG4 S228P/kappa) VH: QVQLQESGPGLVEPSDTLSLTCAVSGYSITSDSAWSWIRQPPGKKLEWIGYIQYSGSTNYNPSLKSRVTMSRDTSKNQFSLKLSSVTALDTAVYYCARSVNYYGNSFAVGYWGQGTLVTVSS VL: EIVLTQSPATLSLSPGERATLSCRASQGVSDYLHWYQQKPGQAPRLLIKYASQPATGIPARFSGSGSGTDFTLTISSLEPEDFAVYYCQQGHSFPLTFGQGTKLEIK
Output line: 8.72

Input line: Please supply the value of reported pKd for the item VH SEQ ID NO 602 / VL SEQ ID NO 366 (antibody, IgG4, V domains shown, humanized 11F2; IgG4 S228P/kappa) VH: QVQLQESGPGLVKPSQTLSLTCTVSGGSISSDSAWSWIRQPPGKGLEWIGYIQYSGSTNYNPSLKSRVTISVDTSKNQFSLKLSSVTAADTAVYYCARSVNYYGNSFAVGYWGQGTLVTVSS VL: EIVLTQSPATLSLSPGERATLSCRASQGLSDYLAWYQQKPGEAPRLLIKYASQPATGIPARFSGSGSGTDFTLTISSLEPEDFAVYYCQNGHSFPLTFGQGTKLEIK
Output line: 7.29

Input line: Please supply the value of reported pKd for the item VH SEQ ID NO 642 / VL SEQ ID NO 494 (antibody, IgG4, V domains shown, humanized 11F2; IgG4 S228P/kappa) VH: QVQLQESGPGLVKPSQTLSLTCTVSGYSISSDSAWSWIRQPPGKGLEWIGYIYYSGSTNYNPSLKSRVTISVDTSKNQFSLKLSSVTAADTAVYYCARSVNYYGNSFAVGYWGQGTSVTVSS VL: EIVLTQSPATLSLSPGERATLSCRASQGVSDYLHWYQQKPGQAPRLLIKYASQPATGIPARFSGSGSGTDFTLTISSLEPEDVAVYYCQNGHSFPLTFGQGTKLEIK
Output line: 8.00

Input line: Please supply the value of reported pKd for the item VH SEQ ID NO 562 / VL SEQ ID NO 422 (antibody, IgG4, V domains shown, humanized 11F2; IgG4 S228P/kappa) VH: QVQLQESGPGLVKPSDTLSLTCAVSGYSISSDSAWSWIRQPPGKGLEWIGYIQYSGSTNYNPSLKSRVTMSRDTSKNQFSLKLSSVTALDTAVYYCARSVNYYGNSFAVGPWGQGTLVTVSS VL: EIVLTQSPATLSLSPGERATLSCRASQGVSDYLAWYQQKPGQAPRLLIKYASQPATGIPARFSGSGSGTDFTLTISSLEPEDFAVYYCQQGHSFPLTFGQGTKLEIK
Output line: 7.74

Input line: Please supply the value of reported pKd for the item VH SEQ ID NO 514 / VL SEQ ID NO 326 (antibody, IgG4, V domains shown, humanized 11F2; IgG4 S228P/kappa) VH: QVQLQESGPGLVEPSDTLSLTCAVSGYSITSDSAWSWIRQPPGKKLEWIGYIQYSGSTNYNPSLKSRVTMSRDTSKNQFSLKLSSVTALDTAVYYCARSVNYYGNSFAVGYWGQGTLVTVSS VL: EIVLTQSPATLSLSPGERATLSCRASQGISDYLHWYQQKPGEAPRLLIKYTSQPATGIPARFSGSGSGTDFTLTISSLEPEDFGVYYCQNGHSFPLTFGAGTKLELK
Output line: 9.12

Input line: Please supply the value of reported pKd for the item VH SEQ ID NO 570 / VL SEQ ID NO 310 (antibody, IgG4, V domains shown, humanized 11F2; IgG4 S228P/kappa) VH: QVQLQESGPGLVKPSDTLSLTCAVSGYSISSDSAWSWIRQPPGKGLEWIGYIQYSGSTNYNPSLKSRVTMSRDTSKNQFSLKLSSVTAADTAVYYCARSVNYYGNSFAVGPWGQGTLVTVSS VL: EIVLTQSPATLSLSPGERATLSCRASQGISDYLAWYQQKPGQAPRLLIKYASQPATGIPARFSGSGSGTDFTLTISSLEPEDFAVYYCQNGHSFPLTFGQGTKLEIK
Output line: 7.89

Input line: Please supply the value of reported pKd for the item VH SEQ ID NO 626 / VL SEQ ID NO 326 (antibody, IgG4, V domains shown, humanized 11F2; IgG4 S228P/kappa) VH: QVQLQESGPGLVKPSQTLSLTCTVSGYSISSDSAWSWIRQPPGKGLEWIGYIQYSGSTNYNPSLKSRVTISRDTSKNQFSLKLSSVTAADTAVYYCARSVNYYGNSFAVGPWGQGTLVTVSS VL: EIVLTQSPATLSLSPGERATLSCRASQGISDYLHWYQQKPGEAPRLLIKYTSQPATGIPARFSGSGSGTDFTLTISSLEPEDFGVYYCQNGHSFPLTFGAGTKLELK
Output line: 9.10

Input line: Please supply the value of reported pKd for the item VH SEQ ID NO 530 / VL SEQ ID NO 486 (antibody, IgG4, V domains shown, humanized 11F2; IgG4 S228P/kappa) VH: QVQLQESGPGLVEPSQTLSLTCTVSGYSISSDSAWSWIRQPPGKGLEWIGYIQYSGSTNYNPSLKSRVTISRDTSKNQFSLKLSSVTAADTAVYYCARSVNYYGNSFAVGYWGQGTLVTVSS VL: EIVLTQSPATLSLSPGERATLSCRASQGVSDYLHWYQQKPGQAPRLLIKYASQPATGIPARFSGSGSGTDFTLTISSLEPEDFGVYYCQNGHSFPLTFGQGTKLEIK
Output line: 9.00
